- Procedure Summary: in vitro
- Applied Conditions: human, hepatocytes
Below, each entry is listed with its recorded log10 of hepatocyte CLint.
Could you please treat all values as log10 of hepatocyte CLint in µL/min/1e6 cells?

// solved cases for log10 of hepatocyte CLint follow
CCOc1cc(-c2cccc3c(=O)cc(N4CCOCC4)oc23)ccc1NC(=O)CN1CCOCC1 :: 1.71
O=C(O[C@H]1C[N+]2(CCCOc3ccccc3)CCC1CC2)C(O)(c1cccs1)c1cccs1 :: 1.81
Nc1[nH]ncc1-c1cc(Cl)ccc1Oc1cc(F)c(S(=O)(=O)Nc2cscn2)cc1Cl [PF-05089771] :: 0.75
CC(C)c1cc(C(=O)N2Cc3ccc(CN4CCN(C)CC4)cc3C2)c(O)cc1O [ONALESPIB] :: 1.37
CCCc1nn(C)c2c(=O)[nH]c(-c3cc(S(=O)(=O)N4CCN(C)CC4)ccc3OCC)nc12 :: 1.22

Sample "COc1cc(N2CCN(C(=O)[C@@H](C)O)CC2)ccc1Nc1ncc(Cl)c(-c2cnc3ccccn23)n1" ; log10 of hepatocyte CLint observed: 1.10

// log10 of hepatocyte CLint value for O=C(O)C1CSC(c2ccccc2Cl)N1C(=O)c1ccc(Cl)cc1 (centres undefined) : 1.19

So for "Cc1ccc(-c2cc(C(F)(F)F)nn2-c2ccc(S(C)(=O)=O)cc2)cc1" , the logged log10 of hepatocyte CLint turned out to be 1.24

The compound listed as "NC1=Nc2ccccc2Sc2ccccc21" shows log10 of hepatocyte CLint equal to 0.90

Sample O=C(c1ccc(F)cc1)C1CCN(CCn2c(=O)[nH]c3ccccc3c2=O)CC1 [KETANSERIN] ; log10 of hepatocyte CLint observed: 1.48

For reference, reported log10 of hepatocyte CLint for "CNc1ncnc2c(CNc3cc(NC(=O)c4ccc5c(c4)OCCO5)ccc3C)cccc12" stands at 1.62

Recorded result, C=CCc1ccccc1OCC(O)CNC(C)C (centres undefined) [ALPRENOLOL] , log10 of hepatocyte CLint: 1.12

Record "Cc1cc(F)ccc1-n1nc(C(F)(F)F)cc1-c1ccc2c(c1)NC(=O)CO2" . Reported log10 of hepatocyte CLint: 1.03

What the record says about "Cn1sc(=O)c2cc(S(N)(=O)=O)ccc21" : log10 of hepatocyte CLint is 1.44

Field log10 of hepatocyte CLint (entry "Cc1cc(C)nc(Nc2cccc(C(F)(F)F)c2)n1" ) reads 1.56

Lab note: measured log10 of hepatocyte CLint of CN(C)CCCOc1nn(Cc2ccccc2)c2ccccc12 [BENZYDAMINE] was 0.89

Form: compound = "Cc1c(Cl)cccc1S(=O)(=O)N1CCC[C@H](C(=O)NC2CCCCC2)C1" ; log10 of hepatocyte CLint = 1.27

response.value for "Cc1nn(-c2ccccc2)c(N)c1-c1ccccc1" (field: log10 of hepatocyte CLint) = 1.51

log10 of hepatocyte CLint in this record for "O=C(CN1CCOCC1)Nc1ccc(-c2cccc3c(=O)cc(N4CCOCC4)oc23)cc1O" : 1.27

Reported log10 of hepatocyte CLint ( "COc1ccc(CCN2C(=O)N(NS(C)(=O)=O)C[C@@H]2c2ccc(OC)cc2)cc1" ) = 1.28

What the record says about "NC1=Nc2ccccc2Sc2cccc(F)c21" : log10 of hepatocyte CLint is 1.12

Given item "Nc1c(-c2ccccc2)nc(Cl)nc1-c1ccccc1" , the value recorded as its log10 of hepatocyte CLint is 1.67

compound "O=C(NCC12CC3CC(CC(C3)C1)C2)c1cc(CN2CCNCC2)ccc1Cl" , log10 of hepatocyte CLint observed: 0.65

Entry C[C@@H]1CN(C(=O)[C@@H]2CN(C(C)(C)C)C[C@H]2c2ccc(F)cc2F)C[C@H](C)[C@@]1(O)c1ccccc1 [PF-00446687] , log10 of hepatocyte CLint reported as 1.40

Recorded result, "C[C@H]1COCCN1c1nc(N2CCOC[C@@H]2C)c2ccc(-c3cccc(C(=O)NCCO)c3)nc2n1" , log10 of hepatocyte CLint: 1.00

Entry "NC1(c2ccc(-c3ncc4cccnc4c3-c3ccccc3)cc2)CCC1" ; log10 of hepatocyte CLint = 1.29

Briefly, log10 of hepatocyte CLint measured for "C[C@H](CO)Nc1nc(SCc2ccccc2)nc2[nH]c(=O)sc12" : 1.29

// log10 of hepatocyte CLint lookup, compound = "CC(C)Oc1cc(-c2cccc3c(=O)cc(N4CCOCC4)oc23)ccc1NC(=O)CN1CCOCC1" , result: 1.94

The value of log10 of hepatocyte CLint measured for the compound "O=C(NCC12CC3CC(CC(C3)C1)C2)c1cc(-n2ncc(=O)[nH]c2=O)ccc1Cl" turned out to be 1.57

Input "O=C(CN1CCOCC1)Nc1ccc(-c2cccc3c(=O)cc(N4CCOCC4)oc23)cc1OCCN1CCCC1" . Output log10 of hepatocyte CLint: 0.74
